Measured koff, listed per entry.
- experimental.target: T1, soluble human CD40 extracellular domain (human, UniProt P25942 21-193)
- T1 construct: Produced in house; also called hCD40; soluble hCD40 extracellular domain
- T1 sequence (P25942 21-193 limits assumed): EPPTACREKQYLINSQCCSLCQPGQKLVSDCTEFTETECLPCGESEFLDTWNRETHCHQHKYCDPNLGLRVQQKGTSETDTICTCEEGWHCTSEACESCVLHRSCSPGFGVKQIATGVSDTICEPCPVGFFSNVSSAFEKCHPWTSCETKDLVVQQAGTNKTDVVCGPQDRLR
- assay.notes: SPR, purified Ab on protein A, 6 concentrations of hCD40 ECD
Answer format: numeric, s⁻¹ implied, no suffix.

Some binders with recorded koff:
M63 (HC-R67Q / LC-K45Q,R54Q,R61Q) (antibody, human IgG1, kappa, V domains shown, IgG1-P238K; also called HC15/LC4) VH: QVQLVQSGAEVKKPGSSVKVSCKASGYAFTSYWMHWVRQAPGQGLEWMGQINPTTGRSQYNEKFKTQVTITADKSTSTAYMELSSLRSEDTAVYYCARWGLQPFAYWGQGTLVTVSS VL: DIQMTQSPSFLSASVGDRVTITCKASQDVSTAVAWYQQKPGKAPQLLIYSASYQYTGVPSQFSGSGSGTDFTLTISSLQPEDFATYYCQQHYSTPWTFGGGTKVEIKR    0.00073
M80 (HC-K63Q / LC-R61Q) (antibody, human IgG1, kappa, V domains shown, IgG1-P238K; also called HC16/LC5) VH: QVQLVQSGAEVKKPGSSVKVSCKASGYAFTSYWMHWVRQAPGQGLEWMGQINPTTGRSQYNEQFKTRVTITADKSTSTAYMELSSLRSEDTAVYYCARWGLQPFAYWGQGTLVTVSS VL: DIQMTQSPSFLSASVGDRVTITCKASQDVSTAVAWYQQKPGKAPKLLIYSASYRYTGVPSQFSGSGSGTDFTLTISSLQPEDFATYYCQQHYSTPWTFGGGTKVEIKR    0.0007
M54 (HC-K12V,K19S,K23A / LC-K45Q,R54Q,R61Q) (antibody, human IgG1, kappa, V domains shown, IgG1-P238K; also called HC6/LC4) VH: QVQLVQSGAEVVKPGSSVSVSCAASGYAFTSYWMHWVRQAPGQGLEWMGQINPTTGRSQYNEKFKTRVTITADKSTSTAYMELSSLRSEDTAVYYCARWGLQPFAYWGQGTLVTVSS VL: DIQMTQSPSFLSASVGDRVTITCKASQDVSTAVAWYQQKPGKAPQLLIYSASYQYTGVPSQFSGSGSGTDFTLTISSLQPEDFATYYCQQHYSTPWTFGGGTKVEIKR    0.00075

## Input koff lookup needed for M62 (HC-K74T / LC-K45Q,R54Q,R61Q) (antibody, human IgG1, kappa, V domains shown, IgG1-P238K; also called HC14/LC4) VH: QVQLVQSGAEVKKPGSSVKVSCKASGYAFTSYWMHWVRQAPGQGLEWMGQINPTTGRSQYNEKFKTRVTITADTSTSTAYMELSSLRSEDTAVYYCARWGLQPFAYWGQGTLVTVSS VL: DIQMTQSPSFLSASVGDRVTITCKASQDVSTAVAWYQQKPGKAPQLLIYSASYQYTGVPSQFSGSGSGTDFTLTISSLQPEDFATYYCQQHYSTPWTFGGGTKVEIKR , thanks.
## Output 0.00066

## Input Returns the measured koff for the input binder. Input: M47 (HC-R67Q / LC-K45E) (antibody, human IgG1, kappa, V domains shown, IgG1-P238K; also called HC15/LC3) VH: QVQLVQSGAEVKKPGSSVKVSCKASGYAFTSYWMHWVRQAPGQGLEWMGQINPTTGRSQYNEKFKTQVTITADKSTSTAYMELSSLRSEDTAVYYCARWGLQPFAYWGQGTLVTVSS VL: DIQMTQSPSFLSASVGDRVTITCKASQDVSTAVAWYQQKPGKAPELLIYSASYRYTGVPSRFSGSGSGTDFTLTISSLQPEDFATYYCQQHYSTPWTFGGGTKVEIKR
## Output 0.00074

## Input Requested read-out: koff. Entry: M38 (HC-K12V,K19S,K23A / LC-K45E) (antibody, human IgG1, kappa, V domains shown, IgG1-P238K; also called HC6/LC3) VH: QVQLVQSGAEVVKPGSSVSVSCAASGYAFTSYWMHWVRQAPGQGLEWMGQINPTTGRSQYNEKFKTRVTITADKSTSTAYMELSSLRSEDTAVYYCARWGLQPFAYWGQGTLVTVSS VL: DIQMTQSPSFLSASVGDRVTITCKASQDVSTAVAWYQQKPGKAPELLIYSASYRYTGVPSRFSGSGSGTDFTLTISSLQPEDFATYYCQQHYSTPWTFGGGTKVEIKR
## Output 0.00077
